# Test system: Plasmodium berghei
# Assay method text: Screen against P. berghei liver stage (PbLuc), transformed with Luciferase, at 10uM
# Assay type: functional, HepG2
# Measurement context: tested at 10 uM
Among all 69,000 compounds or so, about 8,600 (12%) showed an effect of 50% or more. This excerpt belongs to a sample that is enriched for strong results.
Measurement label: INHIBITION (%)

INSERT INTO measurements (molecule, measurement_label, unit_string, test_value) VALUES
  ('Cc1cc(S(=O)(=O)N2CCC(S(C)(=O)=O)C2)ccc1F (centres undefined)', 'INHIBITION', '%', 6.09),
  ('CCN(CCNS(=O)(=O)N1CCOCC1)C(=O)OC(C)(C)C', 'INHIBITION', '%', 41.3),
  ('CN(C)C(=O)N1Cc2ncn(C)c2C(COCC2CCOCC2)C1 (centres undefined)', 'INHIBITION', '%', 6.6),
  ('O=C(Cc1c(F)cccc1Cl)Nc1cccc(N2CCCC2)c1', 'INHIBITION', '%', 43.4),
  ('CC(C)n1ccc(C(=O)OCC2CC(=O)N(Cc3ccccc3)C2)n1 (centres undefined)', 'INHIBITION', '%', 1.74),
  ('CN1CC2(CCN(CCOCCO)CC2)CC(c2ccccc2)C1=O (centres undefined)', 'INHIBITION', '%', 73.4),
  ('Cc1cc(S(=O)(=O)N2CCCN3CCCC3C2)ccc1F (centres undefined)', 'INHIBITION', '%', 88.1),
  ('O=C(O)[C@@H]1CCN(C(=O)c2cscn2)[C@@H]1c1ccc(F)cc1', 'INHIBITION', '%', -35.5),
  ('Cn1cnc2c1C(COCC1CCOCC1)CN(C(=O)c1ccoc1)C2 (centres undefined)', 'INHIBITION', '%', 40.4),
  ('Cn1cnc2c1C(COCC1CCOCC1)CN(C(=O)c1ccco1)C2 (centres undefined)', 'INHIBITION', '%', 64.9),
  ('CN1C(=O)C(c2ccccc2)CC12CCN(CCOCCO)CC2 (centres undefined)', 'INHIBITION', '%', -26.4),
  ('Cc1noc(C)c1C(=O)N1Cc2ncn(C)c2C(COCC(C)C)C1 (centres undefined)', 'INHIBITION', '%', 36.7),
  ('COC(=O)CCn1ccc(=O)c2cc(OC)ccc21', 'INHIBITION', '%', -80.3),
  ('O=C(NC1CC2(CCN(CCO)CC2)c2ccccc21)c1ccno1 (centres undefined)', 'INHIBITION', '%', 49.7);

====

Quick reference for INHIBITION among some compounds
# Tested on: Plasmodium berghei
# Assay method text: Screen against P. berghei liver stage (PbLuc), transformed with Luciferase, at 10uM
# Assay type: functional, HepG2
# Measurement context: tested at 10 uM
Screen size: about 69,000 compounds; about 8,600 (12%) showed an effect of 50% or more. The sample as a whole holds a higher share of strong results than the screen did.
Measurement label: INHIBITION (%)

INSERT INTO results (compound, test_value) VALUES
  ('CC(C)OCc1ccccc1CNC(=O)C(C)(C)C', 68.6),
  ('O=C(CCN1CCOCC1)NC(Cc1ccsc1)c1nccs1 (centres undefined)', 5.055),
  ('COC(=O)CC(C1=Cc2ccccc2OC1)c1oc(C)cc(=O)c1O (centres undefined)', 11.6),
  ('CC(=O)N1CCC1c1cc(N2CC(O)C2)nc(C)n1 (centres undefined)', 3.8);

====

# Tested on: Plasmodium berghei
# Assay method text: Screen against P. berghei liver stage (PbLuc), transformed with Luciferase, at 10uM
# Format: functional, HepG2
# Measurement context: tested at 10 uM
Among all 69,000 compounds or so, about 8,600 (12%) showed an effect of 50% or more. The sample holds strong results, similar compounds and a random draw of the others, so the mix is not that of the screen.
Measurement label: INHIBITION (%)

INSERT INTO assay_data (compound, unit_string, test_value) VALUES
  ('Cn1nnc2c1C(COCc1ccccn1)CN(Cc1ccoc1)C2 (stereo unspecified)', '%', 49.2),
  ('CC(C)n1ncc2c1NC(=O)CC21C(=O)Nc2c(Cl)cccc21 (stereo unspecified)', '%', -75.8),
  ('Cc1cc(Br)c2c(c1)C1(CC(=O)Nc3c1cnn3C(C)C)C(=O)N2 (stereo unspecified)', '%', -34.8),
  ('Cc1ccsc1CN1CC[C@H]2OCC[C@@]2(C(=O)N2CCCO2)C1', '%', 37.2),
  ('Fc1cccnc1N1CCOCC2(CCCN(c3nncs3)C2)C1 (stereo unspecified)', '%', 12.6),
  ('COCCN1C[C@H](NC(=O)CCC(F)(F)F)[C@@H](C(C)C)C1', '%', 30.9),
  ('Fc1ccc(CN2CCC3(CCCN(c4nncs4)C3)C2)cc1 (stereo unspecified)', '%', -11.6),
  ('CC(C)c1ccc(CN2CCC3(CCCN(c4nncs4)C3)C2)cc1 (stereo unspecified)', '%', 60.4),
  ('CC(C)n1ncc2c1NC(=O)CC21C(=O)Nc2c(Cl)cc(Cl)cc21 (stereo unspecified)', '%', -35.5),
  ('Cc1ccc(N2CCCC3(COCCN(c4ncccn4)C3)C2)nn1 (stereo unspecified)', '%', -37.9),
  ('Cc1ccc2c(c1)c(C)cc(=O)n2CCCN', '%', -17),
  ('Cc1ccc(N2CCCC3(COCCN(c4cnccn4)C3)C2)nn1 (stereo unspecified)', '%', -22.1),
  ('Cc1c(CN2Cc3nccn3CC2c2ccccc2)cnn1C (stereo unspecified)', '%', 14.435),
  ('CC(C)Cc1nc(CNCc2cccc(N3CCCC3=O)c2)no1', '%', -20.5),
  ('COc1ccc(N2CCOCC3(CCCN(c4cnccn4)C3)C2)cc1 (stereo unspecified)', '%', 53.9),
  ('O=C(CCN1CCCC(CO)(CC2CC2)C1)NCc1cccc(Cl)c1 (stereo unspecified)', '%', 4.66);

====

# Test system: Plasmodium berghei
# Assay method text: Screen against P. berghei liver stage (PbLuc), transformed with Luciferase, at 10uM
# Assay type: functional, HepG2
# Measurement context: tested at 10 uM
About 8,600 (12%) of roughly 69,000 compounds showed an effect of 50% or more. For the sample, strong results were picked, then their nearest neighbours and some compounds at random.
Label rule met when INHIBITION is at or above 20%; otherwise label rule not met.

INSERT INTO measurements (compound, class_assignment) VALUES
  ('COc1c(CNCc2cccc(Cn3cncn3)c2)c(C)nn1C', 'rule not met'),
  ('COc1ccc(NCCC(=O)NCc2cccnc2N(C)C)cc1', 'rule not met'),
  ('CCCNC(=O)c1cc(Br)c2c(c1)OCCO2', 'rule met'),
  ('Cc1ccc(Nc2ncnc3c2CCN(CC2CCOC2)CC3)cc1 (stereo not drawn)', 'rule met'),
  ('O=C(Nc1ccc(-c2csnn2)cc1)N1CC[C@H](O)C1', 'rule not met'),
  ('Cn1ccnc1CN1CCCN(Cc2noc(C3CC3)n2)CC1', 'rule not met'),
  ('Cn1ccnc1CN1CCN(c2ccc(C#N)cc2F)CC1', 'rule met'),
  ('COc1ccc(S(=O)(=O)N2CCOC(C)(C(N)=O)C2)cc1 (stereo not drawn)', 'rule not met'),
  ('CC(C)N(C)Cc1cnc2n1CCN(C(=O)Cc1ccccn1)C2', 'rule met'),
  ('CCN(C)c1ncnc2c1CCN(CC1CCOC1)CC2 (stereo not drawn)', 'rule met'),
  ('Cc1cnn(CCNc2ncnc3c2CCN(CC2CCOC2)CC3)c1 (stereo not drawn)', 'rule met'),
  ('CCN(CC)c1ncnc2c1CCN(CC1CCOCC1)CC2', 'rule met'),
  ('Cc1nc(N(C)C)ncc1C(=O)N[C@H]1Cc2ccccc2[C@@H]1N', 'rule not met'),
  ('Cc1nc(C)c(C(=O)N2CCC(O)(Cn3ccc4ccncc43)CC2)s1', 'rule not met'),
  ('CCC(C#N)NC(=O)c1cc(Br)c2c(c1)OCCO2 (stereo not drawn)', 'rule not met'),
  ('CN1CC(=O)N(c2ccsc2)CC12CCN(S(=O)(=O)c1ccccc1)C2 (stereo not drawn)', 'rule not met'),
  ('CCOCC1CCN(C(=O)Nc2ccc(-c3csnn3)cc2)C1 (stereo not drawn)', 'rule met'),
  ('CCCC(C#N)NC(=O)c1cc(Br)c2c(c1)OCCO2 (stereo not drawn)', 'rule met'),
  ('COc1c(CNCC(O)c2ccc(C)cc2)c(C(C)C)nn1C (stereo not drawn)', 'rule not met'),
  ('COCC(=O)N(C)Cc1cccc(Cl)c1', 'rule not met'),
  ('Cn1ccnc1CN1CCN(Cc2cc(C#N)ccc2F)CC1', 'rule met'),
  ('c1nc2c(c(C3CC3)n1)CCN(CC1CCOC1)CC2 (stereo not drawn)', 'rule not met');
